src = ChEMBL document CHEMBL1150260

species on record: Rattus norvegicus; test: Selectivity for rat dopamine D3 receptor over rat dopamine D2L receptor
metric: Ratio Ki

* CCCN(CCN1CCN(c2ccccc2)CC1)C1CCc2ccc(O)cc2C1 (stereo not given) | 91
* CCCN(CCN1CCN(c2ccccc2)CC1)C1CCc2nc(N)sc2C1 (stereo in doubt; (-)-31) | 58.6
* CCCN(CCN1CCN(c2ccccc2)CC1)C1CCc2nocc2C1 (stereo not given) | 3.2
* CCCN(CCN1CCN(c2ccccc2)CC1)C1CCc2oncc2C1 (stereo not given) | 5.9
* CCCN(CCCCN1CCN(c2ccccc2)CC1)C1CCc2nc(N)sc2C1 (stereo not given) | 62
* CCCN(CCN1CCN(c2ccccc2)CC1)C1CCc2nnsc2C1 (stereo not given) | 4.66
* CCCN(CCN1CCN(c2ccccc2)CC1)C1CCc2[nH]ncc2C1 (stereo not given) | 39.3
* CCCN(CCN1CCN(c2ccccc2)CC1)C1CCc2c[nH]nc2C1 (stereo not given) | 13.7
* CCCN(CCN1CCN(c2ccccc2)CC1)C1CCc2nc(N)sc2C1 (stereo in doubt; 6a) | 107
* CCCN(CCN1CCN(c2ccccc2OC)CC1)C1CCc2nc(N)sc2C1 (single isomer, unassigned; (+)) | 2.4
